These measurements were taken from patent US7947726B2.

Catalogue of Emax readings, one per entry.
Test system: Coll A
Protocol Summary: Coll A repression
Type: cell-based
Particulars: Table 5; read-out: Repression Coll A % max repression

{"Compound": "Cc1cc(O)cc(C)c1C(O)C1CCCC2=Cc3c(cnn3-c3ccc(F)cc3)CC21C (centres unmarked)", "Emax": "75%"}
{"Compound": "CC12Cc3cnn(-c4ccc(F)cc4)c3C=C1CCCC2C(O)c1cccc2[nH]ccc12 (centres unmarked)", "Emax": "75%"}
{"Compound": "CC12Cc3cnn(-c4ccc(F)cc4)c3C=C1CCCC2C(O)c1ccsc1 (centres unmarked)", "Emax": "68%"}
{"Compound": "CC12Cc3cnn(-c4ccc(F)cc4)c3C=C1CCCC2C(O)c1cc2ccccc2c2ccccc12 (centres unmarked)", "Emax": "73%"}
{"Compound": "CC12Cc3cnn(-c4ccc(F)cc4)c3C=C1CCCC2C(O)c1ccc(O)cc1 (centres unmarked)", "Emax": "70%"}
